Assay Name: chemical genetic growth profiling, strain panel (AID 1159580);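 further: tested at 20 µM; growth read once vehicle control cultures reached saturation at 30 °C; 1 = growth at the plate median or of vehicle wells; lower values mean less growth of the strain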
Assay Setup: S. cerevisiae deletion strains, growth OD, locus YMR129W, stronger effect = lower value
About 2,000 (36%) of roughly 5,500 compounds were called active. About 18% were inconclusive and are not listed. This is one part of the list.
Just a reminder that ties go to FALSE: only normalized growth strictly below 1 counts as TRUE.

These solved cases illustrate the format of a correct answer.
Compound | Answer Label
C=Cc1c2[nH]c(c1C)C=c1[nH]c(c(C)c1C=C)=CC1N=C(C=c3[nH]c(c(C)c3CCC(=O)O)=C2)C(CCC(=O)O)=C1C (centres undefined) | FALSE
CCC(=O)O[C@H]1CCC2C3CCC4=CC(=O)CC[C@]4(C)C3CC[C@@]21C (some centres undefined) | TRUE
CC(C[N+](C)(C)C)OC(N)=O (centres undefined) | FALSE
CCOC(=O)C(=O)C1(C(=O)OCC)Oc2cc(OC)cc(OC)c2C(=O)C1c1ccccc1 (centres undefined) | TRUE

QUERY: Dear reviewer, please state whether Oc1cc(Cl)ccc1Oc1ccc(Cl)cc1Cl has normalized growth strictly beneath 1.
RESULT: TRUE

QUERY: Hello, is normalized growth of the following compound strictly smaller than 1? CCCCCCCCNC(C)C(O)c1ccc(SC(C)C)cc1 (centres undefined)
RESULT: TRUE

QUERY: normalized growth under 1? Item: CC(C)c1c(C(=O)c2ccccc2)c(-c2ccccc2)c(-c2ccc(F)cc2)n1CC[C@@H](O)C[C@@H](O)CC(=O)O
RESULT: TRUE

---

Assay Name: chemical genetic growth profiling, strain panel (AID 1159580);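 further: tested at 20 µM; growth read once vehicle control cultures reached saturation at 30 °C; 1 = growth at the plate median or of vehicle wells; lower values mean less growth of the strain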
Assay Setup: S. cerevisiae deletion strains, growth OD, locus YMR223W, strain ubp8, stronger effect = lower value
Screen size: about 5,500 compounds; about 2,000 (36%) were called active. Not shown: some 18% with an inconclusive outcome. Some of the results follow.
Measure: normalized growth
Answer as a number with no unit attached.

These solved cases illustrate the format of a correct answer.
Compound | Data Value
Cc1c(O)c(C(=O)CC(C)C)c2oc3c(C(=O)CC(C)C)c(O)c(C)c(O)c3c2c1O | 0.996
COc1cc(NS(=O)(=O)c2ccc(N)cc2)nc(OC)n1 | 0.987
CC(=O)C1CCC2C3CC(=O)C4=CC(=O)CCC4(C)C3CCC12C (stereo unspecified) | 1
C=C(C)C1CNC(C(=O)O)C1CC(=O)O (stereo unspecified) | 1.02

QUERY: May I ask what normalized growth has been recorded for NCCSSCCN ?
RESULT: 0.981

QUERY: Name the reported normalized growth value associated with the compound COc1cc2c(cc1OC)[C@@H]1C(=O)c3ccc(O)c(CC=C(C)C)c3O[C@@H]1CO2
RESULT: 0.995

QUERY: // returns reported normalized growth for input CC(C)(O)[C@@H]1[C@H]2OC(=O)[C@@H]1[C@]1(O)C[C@H]3O[C@]34C(=O)O[C@H]2[C@]14C
RESULT: 1.01

QUERY: Need normalized growth, item CC(=O)OCC(=O)[C@@]1(O)CCC2C3CCC4=CC(=O)CC[C@]4(C)C3C(=O)C[C@@]21C (stereo partly specified)
RESULT: 1.04

QUERY: If you can, please state the reported normalized growth value of COc1cc2c(cc1OC)C1C(=O)c3c(cc4c(c3O)C=CC(C)(C)O4)OC1CO2 (stereo unspecified) .
RESULT: 1.01

QUERY: Any idea what normalized growth was measured for c1ccc(N=Nc2ccccc2)cc1 ?
RESULT: 1

QUERY: Suppose we examine the compound OCC(O)C(O)C(O)CO (stereo unspecified) ; what normalized growth value has been reported?
RESULT: 1

QUERY: Requested read-out: normalized growth. Entry: CC[C@H](/C=C/C(C)C1CCC2C3CCC4=CC(=O)CC[C@]4(C)C3CC[C@]12C)C(C)C (stereo partly specified)
RESULT: 1.01

QUERY: // lookup normalized growth for CC(=O)c1c(O)c(C)c(O)c2c1oc1c(C(C)=O)c(O)c(C)c(O)c12
RESULT: 0.921

QUERY: Entry under review: COc1cc2c(cc1OC)[C@@H]1C(=O)c3ccc4oc(C(C)C)cc4c3O[C@@H]1CO2 . Reported normalized growth?
RESULT: 1.01

QUERY: Fill blank: measured normalized growth of the compound C=C(C)[C@@H]1[C@H]2OC(=O)[C@@H]1[C@]1(O)C[C@H]3O[C@]34C(=O)O[C@H]2[C@]14C is ____.
RESULT: 0.983

QUERY: Record request: normalized growth value, item COc1ccc2c(c1)O[C@@H]1COc3cc(OC)c(OC)cc3[C@@H]1C2=O
RESULT: 0.78

QUERY: # query: normalized growth of entry COc1cc2c(cc1OC)[C@@H]1C(=O)c3ccc4c(c3O[C@@H]1CO2)C=CC(C)(C)O4
RESULT: 0.954

QUERY: I'd like to know its normalized growth. The compound in question is C[C@]12CCC(=O)C=C1CCC1C2CC[C@@]2(C)C1CC[C@@H]2O (stereo partly specified)
RESULT: 1.01

QUERY: What does the data say about its normalized growth? Entry: ClC1=C(Cl)C2(Cl)C3C4C=CC(C4)C3C1(Cl)C2(Cl)Cl (stereo unspecified)
RESULT: 0.949

QUERY: For the compound CS(=O)(=O)c1ccc(C2=C(c3ccccc3)C(=O)OC2)cc1 , what normalized growth is on record?
RESULT: 0.982

QUERY: Item under review: CCC(=O)O[C@H]1CCC2C3CCC4=CC(=O)CC[C@]4(C)C3CC[C@@]21C (stereo partly specified) . Reported normalized growth?
RESULT: 0.888
